assayExplanation: yeast display, Sf9 membrane polyspecificity reagent, FACS + sequencing; frameworks hold sequencing errors

querySequence: QVQLVESGGGLVQAGGSLRLSCAASGSTYRDYAKGWYRQAPGKERELVASITSGSSTYYADSLKGRFTMSRDNAKNTVYLQMNSLKPEDTAVYYCATGRQYDLHRLRHDYWGQGTQVTVSS
polyreactivity (PSR sort gate): low polyreactivity
//
querySequence: KVQLVESGGGLVQAGGSLRLSCAASGSIFTYYAMGWDRQAPGKERELVAAISIGGRTDYADSVKGRFTISRDNAKNTVSLQMNSLKPEDTAVYYCVAKGHLDSGGYEYYYWRQGTQVTVSS
polyreactivity (PSR sort gate): low polyreactivity
//
querySequence: QDQLVESGGGLVQAGGTLRLSCAASGSTFARYAMGWYRQAPGKERELVAAISRRGGSTYYADSVKGRFTISRDNAKITVDLQMNSLKPEDTAVYSCAARYGIISYLEYDYWGQGTQVTVSS
polyreactivity (PSR sort gate): high polyreactivity
//
querySequence: QVQLVESGGGLVQAGGSLRLSCAASGRIFTTYAMGWYRPAPGKERELVAANTSGGRTNYADSVKGRFTISRDNAKNTVYLQMNSLKPEDTAVYYCAADGGVRRLTGLLYSFDYWGQGTQVTVSS
polyreactivity (PSR sort gate): low polyreactivity
//
querySequence: QVQLVESGGGLVQAGGRLRLSCAASGRTFLVNAMGWYRQAPGKERELVAAISQRGGSTDYADSVKGRFTISRDNAKNTVYLQMNSLKPEDTAVYYCAVRWGYLYDYWGQVTQVTVSS
polyreactivity (PSR sort gate): low polyreactivity
//
querySequence: QVQLVESGGGLVQAGGSLRLSCAASGSIFGGYGMGWYRQAPGKERELVAAINSGSSTYYADSVKGRFTISRDNAKNTVYLQMNSLKPEDTAVYYCAARPYPHSAYEGDYWGRGTQVTVSS
polyreactivity (PSR sort gate): low polyreactivity
//
querySequence: QVQLVESGGGLVQAGGSLRLSCAASGFTFSAYAMGWYRQAPGKERELVAAITRSGGSTYYADSVKGRFTISRDNAKNTVYLQMNSLKPEDTAVYYCAKSDRPWWGYYYQFDYWGQGTQVTVSS
polyreactivity (PSR sort gate): low polyreactivity
//
querySequence: QVQLVESGGGLVQAGVSLLLSCAASGRTFYANAMGWYSQAPGKEREFVAAISYGTGGTYYADSVKGRFTISRDNAKNTVYLQMNTLKPEDTAVYYCAASLYWGIYGWMGYWGQGTQVTVSS
polyreactivity (PSR sort gate): high polyreactivity
//
querySequence: QVQLVESGGGLVQAGGSLRLSCAASGSIAMGWYRQAPGKERELVATISSSGGSTYYADSVKGRFTISRDNAKNTVYLQMNSLKPEDTAVYYCNTQAVYGGGEGGYDYWGQGTQVTVSS
polyreactivity (PSR sort gate): low polyreactivity
//
querySequence: QVQLVESGGGLVQAGGSLRLSCAASGFIFRYYAMGWYRQAPGKERELVAAISKRGGGTYYADSVKGRFTISRDNAKNTVYLQMNSLKPEDTAVYYCNKDGGYGTGSSREYDSWGQGTQVTVSS
polyreactivity (PSR sort gate): high polyreactivity
//
querySequence: QVQLEESGGGLVQAGGSLRLSCAASGFTFTRNAMGWYRQAPGKERELVAAISRGGSTNYADSVQGRFRISSDNAKNTVYLQMNSLKPEDTAVYYCAKVRTRATPGVDYYYWGQGTQVTVSS
polyreactivity (PSR sort gate): high polyreactivity
